- tgt: 5-HT2A receptor (Homo sapiens, UniProt P28223)
- Sequence (P28223 whole entry): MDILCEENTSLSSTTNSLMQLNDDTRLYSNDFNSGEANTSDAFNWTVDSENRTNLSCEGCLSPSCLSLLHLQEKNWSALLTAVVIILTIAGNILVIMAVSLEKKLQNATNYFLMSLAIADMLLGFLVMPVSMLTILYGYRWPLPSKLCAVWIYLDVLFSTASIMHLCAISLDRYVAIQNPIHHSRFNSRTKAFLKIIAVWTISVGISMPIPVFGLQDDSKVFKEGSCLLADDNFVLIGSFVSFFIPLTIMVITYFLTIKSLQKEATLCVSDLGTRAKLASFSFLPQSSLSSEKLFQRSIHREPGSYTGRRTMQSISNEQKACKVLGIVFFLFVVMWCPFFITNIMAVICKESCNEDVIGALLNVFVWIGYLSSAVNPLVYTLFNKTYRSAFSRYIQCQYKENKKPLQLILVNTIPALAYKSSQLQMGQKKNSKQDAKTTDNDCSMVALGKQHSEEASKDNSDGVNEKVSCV
- assay text: 5-HT2AR calcium flux activation assay
- Assay type: cell-based
- Set-up: expressed in transfected cells; host or cells: HEK293
- condition info: HEK293 cells stably expressing human 5-HT2A receptor, FLIPR, Fluo-4; read-out: EC50
Note to self: use Y only for EC50 readings below 10 nM; a reading exactly at 10 nM still gets N.

compound	tgt	class name
CC(C)c1cnn(CCCN2CCC(c3c[nH]c4cccc(O)c34)C2)n1 (stereo not shown) [Compound 128]	5-HT2A receptor (Homo sapiens, UniProt P28223)	Y

## Task Field: below-cutoff. Rule: recorded EC50 strictly less than 10 nM. Subject: COc1ccccc1CCCN1CCC(c2c[nH]c3cccc(O)c23)C1 (stereo not shown) [Compound 2]
## Result N

## Task Field: below-cutoff. Rule: recorded EC50 strictly less than 10 nM. Subject: Oc1cccc2[nH]cc(C3CCN(CCCc4ncsn4)C3)c12 (stereo not shown) [Compound 56]
## Result Y

Taken from patent EP4752142A1.
